Reference for the values: PubChem BioAssay (NCI)

# Test system: NCI-H23 lung
# protocolDetails: NCI tumour cell line growth inhibition, 48 h
measuredQuantity: TGI

Enquiry: So what does the record say about TGI for COC(=O)[C@H](Cc1ccccc1)NC(=O)[C@H](Cc1ccccc1)NC(=O)[C@@H]1CCCN1C(=O)N[C@H]1C2C=CC(C2)C1C(=O)N1CCC[C@H]1C(=O)N[C@@H](C)C(=O)N[C@H](C(=O)OC)C(C)C (some centres not stated) ?
Return: > 100 µM

Enquiry: So what does the record say about TGI for COc1ccc(-c2c[nH]c(=S)n2-c2ccc(OC)cc2)cc1 ?
Return: > 50 µM

Enquiry: So what does the record say about TGI for NP(=O)(OCC1=CC(=O)c2ccccc2C1=O)N(CCBr)CCBr (configuration not stated) ?
Return: 14.2 µM

Enquiry: So what does the record say about TGI for N#CC(=NCCO)C1=C(O)c2ccccc2C1=O ?
Return: > 100 µM

Enquiry: So what does the record say about TGI for O=C1Nc2c(ccc(Cl)c2I)C1=O ?
Return: 30.7 µM

Enquiry: So what does the record say about TGI for COC(=O)/C(C#N)=C1\CCC(O)N1 (configuration not stated) ?
Return: > 100 µM

Enquiry: So what does the record say about TGI for C=CCSS/C=C/CS(=O)CC=C (configuration not stated) ?
Return: > 100 µM

Enquiry: So what does the record say about TGI for Cc1cc(C2CC(O)C(CO)O2)cc2c(=O)[nH]c(N)nc12 (configuration not stated) ?
Return: > 100 µM

Enquiry: So what does the record say about TGI for C[C@@]12CCCc3coc(c31)C(=O)c1cc3c(cc12)C(=O)C=CC3=O ?
Return: 29.7 µM

Enquiry: So what does the record say about TGI for CC(=O)N1N=C(c2ccc3ccccc3c2O)CC1C(=O)c1ccco1 (configuration not stated) ?
Return: > 100 µM

Enquiry: So what does the record say about TGI for CC(C)S(=O)(=O)c1ccccc1Nc1nc(Nc2cccc(NC(=O)CN)c2)ncc1Cl ?
Return: 1.03 µM

Enquiry: So what does the record say about TGI for Cc1cn2c(/C=C3\C(=O)N(C)c4ccc(O)cc43)c(C)nc2s1 ?
Return: > 100 µM

Enquiry: So what does the record say about TGI for CCOC(=O)/C=C(/C(=O)OCC)n1ccc(N)nc1=O ?
Return: > 100 µM

Enquiry: So what does the record say about TGI for CNC(=O)Oc1ccc(-c2cn3cc(OC(=O)NC)ccc3n2)cc1 ?
Return: > 100 µM

Enquiry: So what does the record say about TGI for Cc1ccc2c(c1)[nH]c1cc(C(F)(F)F)ccc1[p+]2=O (configuration not stated) ?
Return: > 100 µM

Enquiry: So what does the record say about TGI for O=C1NC(N/N=C/C(O)C(O)C(O)CO)=N/C1=C\c1ccco1 (configuration not stated) ?
Return: > 100 µM

Enquiry: So what does the record say about TGI for COc1ccc(-c2oc3cc(O)c(OC)c(O)c3c(=O)c2OC)cc1O ?
Return: > 100 µM

Enquiry: So what does the record say about TGI for COc1cccc(C2CC(C)=Nc3c(ccc4c3C(=O)c3ccccc3C4=O)N2)c1O (configuration not stated) ?
Return: > 100 µM

Enquiry: So what does the record say about TGI for C/C=C/C(O)P1(=O)N(Cc2ccccc2)[C@@H]2CCCC[C@H]2N1Cc1ccccc1 (some centres not stated) ?
Return: > 25 µM

Enquiry: So what does the record say about TGI for N=C(N)c1ccc(N=Nc2c(O)ccc3c2[nH]c2ccccc23)cc1 ?
Return: > 100 µM

Enquiry: So what does the record say about TGI for COC(=O)C1=CC(=O)OC1(OO)c1ccccc1 (configuration not stated) ?
Return: > 100 µM

Enquiry: So what does the record say about TGI for O=C(Nc1ccc(CO)cc1)c1coc2ccccc2c1=O ?
Return: > 100 µM
